experiment: yeast display, Sf9 membrane polyspecificity reagent, FACS + sequencing; frameworks hold sequencing errors
OBSERVED PROPERTY: polyreactivity (PSR sort gate)

{"SEQUENCE": "QVQLVESGGGLVQAGGSLRLSCAASGSIFDLNAMGWYRQAPGKERELVAAISSGGGTYYADSVKGRFTISRDNAKNTVYLQMNSLKPEDTAVYYCNRVTRWTYNYWGQGTQVTVSS", "polyreactivity (PSR sort gate)": "high polyreactivity"}
{"SEQUENCE": "QVQLVESGGGLVQAGGSLRLSCAASGRTFRSNAMGWYRQAPGKEREFVAAISGRGGITYYADSVKGRFTISRDNAKNTVYLQMNSLKPEDTAVYYCNADYWQAGDYLYYFVYYGGYDYWGQGTQVTVSS", "polyreactivity (PSR sort gate)": "low polyreactivity"}
{"SEQUENCE": "QVQLVESGGGLVQAGGSLRLSCAASGRIFRWNAMGWYRQAPGKERELVASITGGDITNYADSVKGRFTISRDNAKNTVYLQMNSLKPEDTAVYYCAARGYGRGRPVASYGYDYWGQGTQVTVSS", "polyreactivity (PSR sort gate)": "low polyreactivity"}
{"SEQUENCE": "QVQLVESGGGLVHAGGSLRLSCATSGRTFKYNAMGWYRQAPGKEREFVAAISSRGGSTTYYADSVTGRFTISRDNAKNTVYLQMKSLKPEDTAVYYCADRTPPPASRSRVYYWGQCTQVTVSS", "polyreactivity (PSR sort gate)": "high polyreactivity"}
{"SEQUENCE": "QVQLVESGGGLVQAGGSLRLSCAASGSIFAGYTMGWSRQAPGKERELVAVISTGGRTKYADSVKGRFTISRDNAKNTVYLQMNSLKPEDTAVYYCAADSRGWSLDGDYWGQGTQVTVSS", "polyreactivity (PSR sort gate)": "low polyreactivity"}
{"SEQUENCE": "QVQLVESGGGLVQAGGSLRLSCAASGSIFIQYAMGWYRQAPGKERELVAAITSGDDTYYADSVKGRFTISRDNAKNTVYLQMNSLKPEDTAVYYCAKRAHFSSARHVYYIYDYWGQGTQVTVSS", "polyreactivity (PSR sort gate)": "low polyreactivity"}
{"SEQUENCE": "QVQLVESGGGLVQAGGSLRLSCAASGLIFIAYAMGWYRQAPGKERELVAAISSSGGSTYYADSVKGPFTISRDNAKNTFYLQMNSLKPEDTGVYYCAADRFDWGTGRYGYWVQGTQVTVSS", "polyreactivity (PSR sort gate)": "low polyreactivity"}
{"SEQUENCE": "QVHLVESGGGLVQAGGSLRLSCPASGFTFDNYAMGWYRQPPGKERELVAAINWSGGRTYYADSVKGRFTISRDNAKNTVYLQMNSLKPEDTAVYYCGVPGYVRMDYWGQGTQVTVSS", "polyreactivity (PSR sort gate)": "high polyreactivity"}

Query block: Give the reported value of polyreactivity (PSR sort gate) for this record: QVQLVESGGGLVQAGGSLRLSCAASGRIFVRNAMGWYRQAPGKERELVAAISWRGTSTYYADSVKGRFTISRDNAKNTVYLQMNSLKPEDTAVYYCAKRISGYRGDYWGQGTQVTVSS
Result block: high polyreactivity

Query block: Hello, please tell me recorded polyreactivity (PSR sort gate) for this one: QVQLVESGGGLVQAGGSLRLSCAASGRTVVNAMGWYRQAPGKERELVAAISSNGGRTYYADSVKGRFTISRDNAKNTVYLQMNSLKPEDTAVYYCATRWIKGRKMDYWGQGTQVTVSS
Result block: high polyreactivity
